# TESTED ON: UniProtKB P08069
# ASSAY DETAILS: Inhibition of phospho IGFR1 by cellular assay
MEASURED PARAMETER: IC50 (nM)
Give bare numbers, in nM.

Examples with their reported IC50 follow.
Tell me the measured IC50 of `COc1cc2c(cc1Nc1nc(Nc3cccc(F)c3C(N)=O)c3cc[nH]c3n1)N(C(=O)CCN(C)C)CCC2` , please. 209

So what does the record say about IC50 for `COc1cc2c(cc1Nc1nc(Nc3cccc(F)c3C(N)=O)c3cc[nH]c3n1)N(C(=O)CN1CCC1)CC2` ? 128

Entry `COc1ccc(NC(=O)CN(C)C)cc1Nc1nc(Nc2cccc(F)c2C(N)=O)c2cc[nH]c2n1` has what IC50? 28

Would you mind listing IC50 for each of the following molecules?
1. COc1cc2c(cc1Nc1nc(Nc3cccc(F)c3C(N)=O)c3cc[nH]c3n1)N(C(=O)CN1CCCCC1)CCC2
2. COc1cc2c(cc1Nc1nc(Nc3cccc(F)c3C(N)=O)c3cc[nH]c3n1)N(C(=O)CN)CC2

11
765

Batch: IC50 for all items listed.
1. CCN(CC)CC(=O)N1CCc2cc(OC)c(Nc3nc(Nc4cccc(F)c4C(N)=O)c4cc[nH]c4n3)cc21
2. COc1cc(C)c(N(C)C(=O)CN(C)C)cc1Nc1nc(Nc2cccc(F)c2C(N)=O)c2cc[nH]c2n1 [GSK-2219385A]
3. COc1cc2c(cc1Nc1nc(Nc3cccc(F)c3C(N)=O)c3cc[nH]c3n1)N(C(=O)CN(C)C)CCC2

[85, 1730, 16]

---

# TESTED ON: Mitogen-activated protein kinase 8 (Homo sapiens)
# Sequence (P45983 whole entry): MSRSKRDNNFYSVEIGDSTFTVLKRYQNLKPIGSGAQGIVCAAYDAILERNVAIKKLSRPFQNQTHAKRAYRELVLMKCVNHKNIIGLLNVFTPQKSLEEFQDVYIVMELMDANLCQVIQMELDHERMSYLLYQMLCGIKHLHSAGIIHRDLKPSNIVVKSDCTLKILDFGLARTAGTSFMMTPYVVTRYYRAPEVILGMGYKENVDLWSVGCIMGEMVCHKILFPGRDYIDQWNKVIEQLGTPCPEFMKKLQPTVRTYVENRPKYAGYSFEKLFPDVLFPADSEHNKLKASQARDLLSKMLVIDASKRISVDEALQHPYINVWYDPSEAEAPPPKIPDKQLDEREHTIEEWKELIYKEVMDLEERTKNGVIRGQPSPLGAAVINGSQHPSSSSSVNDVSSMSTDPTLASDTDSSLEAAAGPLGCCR
# ASSAY DETAILS: Inhibition of His-tagged JNK1
MEASURED PARAMETER: IC50 (nM)
One number for each entry, in nM.

What measured IC50 goes with `CCN(C)CC(=O)N1CCc2cc(OC)c(Nc3nc(Nc4cccc(F)c4C(N)=O)c4cc[nH]c4n3)cc21` ? 3160

Which IC50 is listed for `COc1cc2c(cc1Nc1nc(Nc3cccc(F)c3C(N)=O)c3cc[nH]c3n1)N(CCN(C)C)CC2` ? 100

Which IC50 reading was recorded for the compound `CNCC(=O)N1CCc2cc(OC)c(Nc3nc(Nc4cccc(F)c4C(N)=O)c4cc[nH]c4n3)cc21` ? 2000

Entry under review: `COc1ccc(OCCCN(C)C)cc1Nc1nc(Nc2cccc(F)c2C(N)=O)c2cc[nH]c2n1` . Reported IC50? 631

Entry `COc1cc2c(cc1Nc1nc(Nc3cccc(F)c3C(N)=O)c3cc[nH]c3n1)N(C(=O)CN(C)C)CCC2` has what IC50? 6310

Query: IC50; subject: `COc1ccc(CCCN(C)C)cc1Nc1nc(Nc2cccc(F)c2C(N)=O)c2cc[nH]c2n1` 5010

Name the reported IC50 value associated with the compound `COc1cc2c(cc1Nc1nc(Nc3cccc(F)c3C(N)=O)c3cc[nH]c3n1)N(C(=O)CN(C)OC)CC2` 794

Requested field: IC50. Item: `COc1cc2c(cc1Nc1nc(Nc3cccc(F)c3C(N)=O)c3cc[nH]c3n1)N(C(=O)CN)CC2` 1000

So what does the record say about IC50 for `COc1ccc(N2CCN(C(C)C)CC2)cc1Nc1nc(Nc2cccc(F)c2C(N)=O)c2cc[nH]c2n1` ? 3160

Given the entry CCCN1CCC(Oc2cc(Nc3nc(Nc4cccc(F)c4C(N)=O)c4cc[nH]c4n3)c(OC)cc2Cl)CC1 [GSK-1713088A] , report its measured IC50. 3980

// each compound listed below needs its IC50
1. COc1cc(C)c(CCCN(C)C)cc1Nc1nc(Nc2cccc(F)c2C(N)=O)c2cc[nH]c2n1
2. COc1cc2c(cc1Nc1nc(Nc3cccc(F)c3C(N)=O)c3cc[nH]c3n1)N(C(=O)CCN(C)C)CCC2
3. COc1cc2c(cc1Nc1nc(Nc3cccc(F)c3C(N)=O)c3cc[nH]c3n1)N(C(=O)CN1CCN(C(C)C)CC1)CC2 [GSK-1751853A]

501
7940
1590

---

# ASSAY DETAILS: Oral bioavailability in rat at 13 mg/kg, po
# Type: ADME, organism-based
# MEASUREMENT CONTEXT: in vivo
Please go through the items and note down their bioavailability.
Give bare numbers, in %.

Given `COc1ccc(OCCCN(C)C)cc1Nc1nc(Nc2cccc(F)c2C(N)=O)c2cc[nH]c2n1` , state its recorded bioavailability. 60

Next up:
I have this compound here, `COc1cc2c(cc1Nc1nc(Nc3cccc(F)c3C(N)=O)c3cc[nH]c3n1)N(C(=O)CN(C)C)CC2` , and I need its recorded bioavailability. 61

---

# TESTED ON: Insulin-like growth factor 1 receptor (Homo sapiens, UniProt P08069)
# Sequence (P08069 31-736 limits assumed): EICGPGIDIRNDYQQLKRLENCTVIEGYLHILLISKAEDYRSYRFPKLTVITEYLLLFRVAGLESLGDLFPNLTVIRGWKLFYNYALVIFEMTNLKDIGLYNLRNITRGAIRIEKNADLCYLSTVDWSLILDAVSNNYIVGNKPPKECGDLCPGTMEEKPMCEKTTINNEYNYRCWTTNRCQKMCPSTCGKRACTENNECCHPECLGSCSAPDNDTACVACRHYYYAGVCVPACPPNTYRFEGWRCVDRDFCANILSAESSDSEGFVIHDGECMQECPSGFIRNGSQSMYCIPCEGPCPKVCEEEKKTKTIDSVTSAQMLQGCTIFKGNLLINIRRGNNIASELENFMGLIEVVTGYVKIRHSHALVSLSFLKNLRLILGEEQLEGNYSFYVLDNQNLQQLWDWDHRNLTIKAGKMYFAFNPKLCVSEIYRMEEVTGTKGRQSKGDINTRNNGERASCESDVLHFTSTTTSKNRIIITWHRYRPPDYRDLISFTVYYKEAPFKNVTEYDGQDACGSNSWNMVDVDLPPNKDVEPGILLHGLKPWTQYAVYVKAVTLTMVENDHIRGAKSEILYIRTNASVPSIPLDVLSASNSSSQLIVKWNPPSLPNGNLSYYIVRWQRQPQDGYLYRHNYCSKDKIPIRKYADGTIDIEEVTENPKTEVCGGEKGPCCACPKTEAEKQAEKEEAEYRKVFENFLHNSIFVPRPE
# Sequence (P08069 741-1367 limits assumed): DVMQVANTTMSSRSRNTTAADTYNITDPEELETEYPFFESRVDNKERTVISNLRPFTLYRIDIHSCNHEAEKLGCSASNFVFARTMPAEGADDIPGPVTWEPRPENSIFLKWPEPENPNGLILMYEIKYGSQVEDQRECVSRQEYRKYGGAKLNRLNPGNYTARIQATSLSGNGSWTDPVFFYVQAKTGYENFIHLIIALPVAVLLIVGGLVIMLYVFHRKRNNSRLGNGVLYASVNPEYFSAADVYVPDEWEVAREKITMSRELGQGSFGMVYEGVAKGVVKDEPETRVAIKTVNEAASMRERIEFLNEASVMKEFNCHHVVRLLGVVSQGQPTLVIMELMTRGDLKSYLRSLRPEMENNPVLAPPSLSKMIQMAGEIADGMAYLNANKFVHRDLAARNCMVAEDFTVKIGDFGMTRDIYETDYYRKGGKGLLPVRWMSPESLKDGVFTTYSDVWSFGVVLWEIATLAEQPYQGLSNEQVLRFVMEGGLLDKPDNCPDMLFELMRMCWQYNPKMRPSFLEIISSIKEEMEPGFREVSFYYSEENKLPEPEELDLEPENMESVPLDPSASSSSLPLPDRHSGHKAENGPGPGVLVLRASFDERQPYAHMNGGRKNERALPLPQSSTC
# ASSAY DETAILS: Inhibition of phospho IGFR1 by cellular assay
MEASURED PARAMETER: pIC50
Answers are plain numbers, as −log10 of the molar value.

Worked cases, pIC50 given:
I would be grateful if you could share the reported pIC50 for `COc1cc2c(cc1Nc1nc(Nc3cccc(F)c3C(N)=O)c3cc[nH]c3n1)N(C(=O)Cn1ccnc1)CC2` . 5.11

Which pIC50 value belongs to `COc1cc2c(cc1Nc1nc(Nc3cccc(F)c3C(N)=O)c3cc[nH]c3n1)N(C(C)=O)CC2` ? 6.56

For the molecule shown here, `COc1cc2c(cc1Nc1nc(Nc3cccc(F)c3C(N)=O)c3cc[nH]c3n1)N(C(=O)CCN(C)C)CC2` , give the reported pIC50. 6.72

# lookup: pIC50 of COc1cc2c(cc1Nc1nc(Nc3cccc(F)c3C(N)=O)c3cc[nH]c3n1)N(C(=O)CN1CCN(C(C)C)CC1)CC2 [GSK-1751853A] 6.42

Entry `COc1ccc(CCCN(C)C)cc1Nc1nc(Nc2cccc(F)c2C(N)=O)c2cc[nH]c2n1` : reported pIC50 = ? 6.67

For every item in the list below, what is its measured pIC50?
1. COc1cc2c(cc1Nc1nc(Nc3cccc(F)c3C(N)=O)c3cc[nH]c3n1)N(C(=O)CN1CCOCC1)CC2
2. COc1ccc(N(C)C(=O)CN(C)C)cc1Nc1nc(Nc2cccc(F)c2C(N)=O)c2cc[nH]c2n1
3. COc1cc2c(cc1Nc1nc(Nc3cccc(F)c3C(N)=O)c3cc[nH]c3n1)N(C(=O)CCN1CCOCC1)CC2

7.14
6.42
6.53

---

# TESTED ON: UniProt P08069
# ASSAY DETAILS: Inhibition of IGF-1R
Exam item: assign t to entries whose IC50 is below 8 nM and f to entries at or above 8 nM. Note that a value of exactly 8 nM receives f.

Examples from the recorded data:
Lab note: IC50 threshold 8 nM. Does this compound come in strictly under it? `CNCC(=O)N1CCc2cc(OC)c(Nc3nc(Nc4cccc(F)c4C(N)=O)c4cc[nH]c4n3)cc21` t

Please let me know if COc1cc(C)c(NC(=O)CN(C)C)cc1Nc1nc(Nc2cccc(F)c2C(N)=O)c2cc[nH]c2n1 [GSK-2213727A] shows IC50 below 8 nM. t

Does this compound meet the criterion IC50 < 8 nM? `COc1cc2c(cc1Nc1nc(Nc3cccc(F)c3C(N)=O)c3cc[nH]c3n1)N(C(C)=O)CCC2` f

Please indicate whether the reported IC50 of `COc1cc2c(cc1Nc1nc(Nc3cccc(F)c3C(N)=O)c3cc[nH]c3n1)N(C(=O)CCN1CCOCC1)CC2` is strictly below 8 nM. t

Is the reported IC50 for `CCCN1CCC(Oc2ccc(OC)c(Nc3nc(Nc4cccc(F)c4C(N)=O)c4cc[nH]c4n3)c2)CC1` strictly below 8 nM? t

Others:
Bench note: check whether `COc1cc2c(cc1Nc1nc(Nc3cccc(F)c3C(N)=O)c3cc[nH]c3n1)N(C(=O)CN)CC2` shows IC50 below 8 nM t

Determine whether this compound shows IC50 lower than 8 nM (ties excluded): `COc1ccc(CCCN(C)C)cc1Nc1nc(Nc2cccc(F)c2C(N)=O)c2cc[nH]c2n1` f

Does `COc1cc2c(cc1Nc1nc(Nc3cccc(F)c3C(N)=O)c3cc[nH]c3n1)N(CCN(C)C)CC2` have IC50 strictly under 8 nM? f

---

# ASSAY DETAILS: Clearance in rat at 2.6 mg/kg, iv and […] mg/kg, po
# Format: ADME, organism-based
# MEASUREMENT CONTEXT: in vivo
MEASURED PARAMETER: clearance (mL/min/kg)
Answers are plain numbers, in mL/min/kg.

# lookup: clearance of `COc1cc2c(cc1Nc1nc(Nc3cccc(F)c3C(N)=O)c3cc[nH]c3n1)N(C(=O)CN(C)C)CC2` 48
